Literature pIC50 values, system: Cytochrome P450 2C9 (Homo sapiens, UniProt P11712).
pIC50: −log10 of the molar value.

Example cases with answers are listed next.
smiles	pIC50
CS(=O)(=O)CC(=O)Nc1c(-c2ccc(Cl)cn2)nn2c1C(=O)N[C@]1(CCc3cc(F)cc(F)c31)C2	< 4.70
CCn1cc(Nc2ccc(Cc3c[nH]c4ncnc(OCCOC)c34)c(F)n2)cn1	5.00 to 5.30
C[C@@]1(c2cc(NC(=O)c3ccc(OCF)cn3)ccc2F)C[C@@H](C(F)(F)F)OC(N)=N1	< 4.30

Moving on to the next molecule.
Query block: Param readout= pIC50; system= Cytochrome P450 2C9 (Homo sapiens, UniProt P11712); entry= C[C@H]1[C@@H](C(F)F)OC(N)=N[C@]1(C)c1cc(NC(=O)c2ccc(C#N)cn2)ccc1F ; returns value.
Result block: ≤ 4.70
